B1: LOXL2 (parent)
chain: RLLRFSSQIHNNGQSDFRPKNGRH

# Variants of: B1
# Assay Info: protein stability index of a GFP-peptide fusion (GPS, HEK-293T) (PSI 1-6); higher = more stable;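 also: lentivirally expressed fusions sorted by FACS into six bins by GFP to DsRed ratio, PSI derived from sequencing read proportions per bin multiplied by bin number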
# Condition Notes: c terminus: a fixed tail appended
Endpoint: protein stability index
Please give only the number in your answer, with no unit.

protein stability index in this record for `G22P` : 2.7

protein stability index in this record for `K20Q` : 2.54

protein stability index in this record for `D16T` : 2.29

protein stability index in this record for `S7I` : 1.89

protein stability index in this record for `N12V` : 2.87

protein stability index in this record for `R18L` : 2.31

protein stability index in this record for `Q14D` : 2.84

protein stability index in this record for `L3A` : 3.59

protein stability index in this record for `Q14K` : 2.39

protein stability index in this record for `L2D` : 4.51

protein stability index in this record for `D16E` : 2.72

protein stability index in this record for `I9G` : 3.48

protein stability index in this record for `N21D` : 2.93

protein stability index in this record for `K20F` : 2.22

protein stability index in this record for `H10Q` : 2.83

protein stability index in this record for `R1Y` : 1.71

protein stability index in this record for `S6W` : 2.56

protein stability index in this record for `K20P` : 2.47

protein stability index in this record for `L2P` : 4.63

protein stability index in this record for `L2F` : 2.82

protein stability index in this record for `H24T` : 2.76

protein stability index in this record for `F5V` : 3.74
